# inhibition values compiled below
TESTED_ON: N-glycosylase/DNA lyase (Homo sapiens) (UniProt O15527)
Sequence (O15527 whole entry): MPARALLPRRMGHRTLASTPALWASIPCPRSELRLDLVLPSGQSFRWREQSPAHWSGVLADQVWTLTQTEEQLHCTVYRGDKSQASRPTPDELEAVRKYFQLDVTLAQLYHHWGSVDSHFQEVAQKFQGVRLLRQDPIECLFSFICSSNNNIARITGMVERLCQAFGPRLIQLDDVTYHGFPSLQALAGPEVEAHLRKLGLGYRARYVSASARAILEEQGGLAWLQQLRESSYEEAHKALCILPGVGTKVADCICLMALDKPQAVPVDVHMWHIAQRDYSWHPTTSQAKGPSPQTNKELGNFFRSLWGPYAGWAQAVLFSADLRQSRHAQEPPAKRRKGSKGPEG
DETAILS: Compound Concentration 1.0 uM, Hit No
Description: Inhibition of OGG1 by quantifying inhibition of OGG1-mediated cleavage and dissociation of quenched duplex DNA oligonucleotides, measured as fluorescence at 594 nm. To generate a functional strand incision and increase turn-over this assay is coupled to APE1.
The reply should be a number in %, with the unit left off.

// below: answered compounds
[[record]]
compound = "CN1C(=O)[C@@H](N2CCc3c(nn(Cc4ccccc4)c3Br)C2=O)COc2ccccc21"
property = "inhibition"
endpoint_result = 0.775

[[record]]
compound = "COc1ccc2cc(OCC3(C(=O)O)CN(C(=O)c4ccc(F)cc4)C3)ccc2c1"
property = "inhibition"
endpoint_result = -4.88

[[record]]
compound = "O=C(Cc1ccccc1)Nc1nnc(N2CC[C@@H]3[C@H]2CN3c2cccnn2)s1"
property = "inhibition"
endpoint_result = 3.62

[[record]]
compound = "O=C(Cc1ccccc1)Nc1nnc(N2C[C@H]3C[C@@H]2CN3c2cccnn2)s1"
property = "inhibition"
endpoint_result = 0.672

[[record]]
compound = "C[C@@H]1CN(c2cc(-c3nn(C)c4ccc(OC5(C)CC5)cc34)ncn2)C[C@H](C)O1"
property = "inhibition"
endpoint_result = 11.8

[[record]]
compound = "c1ccc(-c2oc3ncnc(NC[C@@H]4CCCO4)c3c2-c2ccccc2)cc1"
property = "inhibition"
endpoint_result = 6.47

[[record]]
compound = "CNC(=O)Nc1ccc2c(c1)[C@@]1(CC2)OC(=O)N(CC(=O)N(Cc2ccc(F)cc2)[C@@H](C)C(F)(F)F)C1=O"
property = "inhibition"
endpoint_result = -0.951

[[record]]
compound = "CCN(CC)CCCCNc1ncc2cc(-c3cc(OC)cc(OC)c3)c(NC(=O)NC(C)(C)C)nc2n1"
property = "inhibition"
endpoint_result = -1.83

[[record]]
compound = "Nc1cnc(N2CCc3cc(S(=O)(=O)Nc4c(F)cc(Cl)cc4F)cc(N4CCCC4=O)c32)nc1"
property = "inhibition"
endpoint_result = 0.18


// next item, inhibition requested
Recorded inhibition (compound O=C(NOCC1CC1)c1ccc(F)c(F)c1Nc1ccc(I)cc1Cl ): 1.82

---

TESTED_ON: DNA-3-methyladenine glycosylase (Homo sapiens)
DETAILS: Compound Concentration 10.0 uM, Hit No
Description: Inhibition of MPG by quantifying inhibition of MPG-mediated cleavage and dissociation of quenched duplex DNA oligonucleotides, measured as fluorescence at 594 nm. To generate a functional strand incision and increase turn-over this assay is coupled to APE1.
PROPERTY: inhibition (%)
The reply should be a number in %, with the unit left off.

// below: answered compounds
[[record]]
compound = "Cc1cnc(-c2cc(N3CCN(C(=O)CCS(C)(=O)=O)CC3)ncc2Cl)c(C)c1"
tested_on = "DNA-3-methyladenine glycosylase (Homo sapiens)"
property = "inhibition"
endpoint_result = -9.96

[[record]]
compound = "O=C(O)CCCCCC[C@H]1C(=O)NC(=O)N1CCC(O)C1CCCCC1 (some centres not stated)"
tested_on = "DNA-3-methyladenine glycosylase (Homo sapiens)"
property = "inhibition"
endpoint_result = -5.01

[[record]]
compound = "CC(C)(C)c1ccc(S(=O)(=O)Nc2ccc(Cl)cc2C(=O)c2cc[n+]([O-])cc2)cc1"
tested_on = "DNA-3-methyladenine glycosylase (Homo sapiens)"
property = "inhibition"
endpoint_result = 1.3


Recorded inhibition (compound COc1cc2nc(N3CCN(C(=O)C4CCCO4)CC3)nc(N)c2cc1OC (configuration not stated) ): 11.2

Recorded inhibition (compound Cc1noc(-c2ccc(-c3ccc(CC(=O)O)cc3)cc2)c1NC(=O)O[C@H](C)c1ccccc1Cl ): 10.4

Recorded inhibition (compound O=C(NCC1(N2CCN(c3ccccc3)CC2)CCOCC1)c1cccnc1Sc1ccccc1 ): 1.32

Recorded inhibition (compound COc1ccccc1N1CCN(CCCCNC(=O)c2ccc3ccccc3c2)CC1 ): 14.3

---

TESTED_ON: Adenine DNA glycosylase (Homo sapiens) (UniProt Q9UIF7)
Sequence (whole entry): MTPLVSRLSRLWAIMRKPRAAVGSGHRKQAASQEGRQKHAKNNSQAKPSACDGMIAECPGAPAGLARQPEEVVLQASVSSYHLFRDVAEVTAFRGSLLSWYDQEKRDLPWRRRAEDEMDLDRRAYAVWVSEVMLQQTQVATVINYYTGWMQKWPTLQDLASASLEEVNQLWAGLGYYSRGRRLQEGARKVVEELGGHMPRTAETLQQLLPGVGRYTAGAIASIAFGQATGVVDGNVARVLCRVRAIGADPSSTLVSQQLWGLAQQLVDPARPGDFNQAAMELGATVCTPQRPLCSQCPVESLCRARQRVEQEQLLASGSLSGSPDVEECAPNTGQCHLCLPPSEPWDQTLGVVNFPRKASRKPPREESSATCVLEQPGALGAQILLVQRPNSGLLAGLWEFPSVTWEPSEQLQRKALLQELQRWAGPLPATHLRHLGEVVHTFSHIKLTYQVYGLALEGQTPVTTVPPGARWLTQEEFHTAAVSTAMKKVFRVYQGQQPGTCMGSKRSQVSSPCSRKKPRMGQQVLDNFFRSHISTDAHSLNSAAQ
DETAILS: Compound Concentration 1.0 uM, Hit No
Description: Inhibition of MUTYH by quantifying inhibition of MUTYH-mediated cleavage and dissociation of quenched duplex DNA oligonucleotides, measured as fluorescence at 594 nm. To generate a functional strand incision and increase turn-over this assay is coupled to APE1.
PROPERTY: inhibition (%)
The reply should be a number in %, with the unit left off.

// below: answered molecules
[[record]]
molecule = "Nc1ncc2c(n1)-c1c([nH]c3ccc(C4CC4)cc13)CCCC2"
tested_on = "Adenine DNA glycosylase (Homo sapiens) (UniProt Q9UIF7)"
endpoint_result = -1.15

[[record]]
molecule = "Cn1cc(Cl)c2c(Oc3c(F)cc(Nc4cc(Cl)nc(N)n4)cc3F)ccnc21"
tested_on = "Adenine DNA glycosylase (Homo sapiens) (UniProt Q9UIF7)"
endpoint_result = 1.46

[[record]]
molecule = "Cc1cc(Nc2nccc(C)n2)cc(-c2cnc([C@@]3(O)CC[C@H](C(=O)O)C(C)(C)C3)s2)c1"
tested_on = "Adenine DNA glycosylase (Homo sapiens) (UniProt Q9UIF7)"
endpoint_result = 3.53

[[record]]
molecule = "COc1cccc(-c2nccc3c2CN(c2ccccc2)C3=O)c1"
tested_on = "Adenine DNA glycosylase (Homo sapiens) (UniProt Q9UIF7)"
endpoint_result = -4.69

[[record]]
molecule = "Cc1nc(-c2cn3c(n2)-c2ccc(-c4cnn(C(C)(C)C(N)=O)c4)cc2OCC3)n(C(C)C)n1"
tested_on = "Adenine DNA glycosylase (Homo sapiens) (UniProt Q9UIF7)"
endpoint_result = 3.04

[[record]]
molecule = "CCOC(=O)c1cc2cc(-c3cc(C(=O)NCc4ccc(C(=O)O)cc4)nn3C)ccc2[nH]1"
tested_on = "Adenine DNA glycosylase (Homo sapiens) (UniProt Q9UIF7)"
endpoint_result = -1.36


Recorded inhibition (molecule CCC(=O)N1CCN(c2ccc(-n3c(=O)ccc4cnc5ccc(-c6cnc7ccccc7c6)cc5c43)cc2C(F)(F)F)CC1 ): 15.3

Recorded inhibition (molecule COc1cc2ncn(-c3cc(OCc4ccccc4C(F)(F)F)c(C(N)=O)s3)c2cc1OC ): -6.25

Recorded inhibition (molecule CN(C)C(=O)Cn1cc(-c2ccc(-c3cncc4ccccc34)cc2)cn1 ): 5.04

Recorded inhibition (molecule CC(C)c1cc(Nc2nc(N3CCC[C@H](N)C3)ncc2C(N)=O)cc(C(C)C)n1 ): 0.673

Recorded inhibition (molecule Cc1nc(Cc2cccc(C(F)(F)F)c2)sc1-c1ccc(C(N)=O)nc1 ): -2.4

Recorded inhibition (molecule CCCOc1ccc([C@@H]2[C@@H](C(=O)O)[C@H](c3ccc4c(c3)OCO4)CN2CC(=O)Nc2c(CC)cccc2CC)cc1 ): -8.3

Recorded inhibition (molecule CC(=O)c1c(C)c2cnc(Nc3ccc(N4CCNCC4)cn3)nc2n(C2CCCC2)c1=O ): 37.5

Recorded inhibition (molecule Cc1ccc(C(=O)Nc2cccc(C(F)(F)F)c2)cc1Nc1nc(-c2cccnc2)nc2c1cnn2C ): 7.35

Recorded inhibition (molecule OCCn1cc(-c2ccc3c(c2)CCC3=NO)c(-c2ccncc2)n1 ): -3.03

---

TESTED_ON: G/T mismatch-specific thymine DNA glycosylase (Homo sapiens)
DETAILS: Compound Concentration 10.0 uM, Hit No
Description: Inhibition of TDG by quantifying inhibition of TDG-mediated cleavage and dissociation of quenched duplex DNA oligonucleotides, measured as fluorescence at 594 nm. To generate a functional strand incision and increase turn-over this assay is coupled to APE1.
PROPERTY: inhibition (%)
The reply should be a number in %, with the unit left off.

// below: answered compounds
[[record]]
compound = "CC[C@@H](C)Nc1nc(C)nc2c(-c3ccc(OC)nc3C)c(C)nn12"
endpoint_result = 17.1

[[record]]
compound = "CCCN1CCO[C@H]2c3cc(O)ccc3OC[C@@H]21"
endpoint_result = -3.98

[[record]]
compound = "CCn1c(CNC(=O)c2ncc(C)nc2N)[n+](CC)c2ccc(C(=O)N(C)CCN(C)C)cc21"
endpoint_result = 100

[[record]]
compound = "c1cnc2cc3c(cc2n1)[C@@H]1CNC[C@H]3C1"
endpoint_result = 13.7

[[record]]
compound = "CN1C[C@@H](NS(=O)(=O)N(C)C)C[C@@H]2c3cccc4c3c(cn4C)C[C@H]21"
endpoint_result = 7.57

[[record]]
compound = "C[S+]([O-])c1ccc(-c2nc(-c3ccc(F)cc3)c(-c3ccncc3)[nH]2)cc1 (configuration not stated)"
endpoint_result = 17.7


// next item, inhibition requested
Recorded inhibition (compound Cc1cc(NC(=O)Nc2ccc(N(C)C)cc2)c2cc(F)cc(F)c2n1 ): 9.41
